# key: entry, value: IC50
Tested on: CT-1 cells
Experiment: MTT assay, inhibition of cell growth of CT-1 cells
Format: cell-based
Conditions: CT-1 transformed WI38 fibroblasts, 48 hours incubation, read-out: CT1 IC50
readout label: IC50 (µM)

>>> recorded_result("C=CCSSC=CC[S+]([O-])CCCO (mixture of isomers) [Compound E-4]")
23.1
>>> recorded_result("C=CCSSC=CC[S+]([O-])CCCO (mixture of isomers) [Compound Z-4]")
22.8
>>> recorded_result("CCC[S+]([O-])CC=CSSCCCNS(=O)(=O)c1cccc2c(N(C)C)cccc12 (mixture of isomers) [EZ-13]")
17.7
>>> recorded_result("C=CCSSC=CC[S+]([O-])CCCN1C(=O)c2ccccc2C1=O (mixture of isomers) [Compound E-5]")
95.9

---

# key: entry, value: IC50
Tested on: CT-1 cells
Assay: MTT assay, inhibition of cell growth of CT-1 cells
Assay type: cell-based
Conditions: Homo sapiens, WI-38, 48 h, CT-1 transformed WI38 fibroblasts, 48 hours incubation, read-out: CT1 IC50
readout label: IC50

>>> recorded_result("C=CCSS/C=C/C[S+]([O-])CC=C (centres unmarked) [E-ajoene, reference compound]")
"17.6 µM"
>>> recorded_result("C=CCSSC=CC[S+]([O-])Cc1ccc(OC)cc1 (mixture of isomers) [EZ-8]")
"11.2 µM"
>>> recorded_result("C=CCSS/C=C/C[S+]([O-])CCC (mixture of isomers) [Compound E-3]")
"26.7 µM"
>>> recorded_result("C=CCSS/C=C\\C[S+]([O-])CCC (mixture of isomers) [Compound Z-3]")
"17 µM"
>>> recorded_result("C=CCSSC=CC[S+]([O-])Cc1ccccc1 (mixture of isomers) [EZ-7]")
"16.6 µM"

---

Test system: WHCO1 cells
Assay: MTT assay, inhibition of cell growth of WHCO1 cells
Type: cell-based
Conditions: WHCO1, 48 h, WHCO1 oesophageal epithelial cancer cells, MTT, 48 hours incubation
readout label: IC50

>>> recorded_result("COc1ccc(C[S+]([O-])CC=CSSCc2ccccc2)cc1 (mixture of isomers)")
"3.05 µM"
>>> recorded_result("C=CCSSC=CC[S+]([O-])Cc1ccc(OC)cc1 (mixture of isomers)")
"7.12 µM"
>>> recorded_result("C=CCSS/C=C/C[S+]([O-])CCC (mixture of isomers)")
"35.8 µM"
>>> recorded_result("C=CCSSC=CC[S+]([O-])Cc1ccccc1 (mixture of isomers)")
"8.8 µM"
>>> recorded_result("C=CCSS/C=C/C[S+]([O-])CC=C (stereo not drawn) [E-ajoene, reference compound]")
"20.9 µM"
>>> recorded_result("C=CCSS/C=C\\C[S+]([O-])CCC (mixture of isomers)")
"21.6 µM"

---

# key: entry, value: pIC50
Tested on: CT-1 cells
Assay: MTT assay, inhibition of cell growth of CT-1 cells
Format: cell-based
Details: CT-1 transformed WI38 fibroblasts, 48 hours incubation, read-out: CT1 IC50
pIC50: −log10 of the molar value.
readout label: pIC50

>>> recorded_result("C=CCSSC=CC[S+]([O-])C(C)(C)C (mixture of isomers)")
4.48
>>> recorded_result("C=CCSSC=CC[S+]([O-])CCCOCc1ccc(OC)cc1 (mixture of isomers) [Compound E-9]")
4.63
>>> recorded_result("C=CCSSC=CC[S+]([O-])CCCOCc1ccc(OC)cc1 (mixture of isomers) [Compound Z-9]")
4.66
>>> recorded_result("C=CCSS/C=C/C[S+]([O-])CC=C (stereo not shown) [Z-ajoene, reference compound]")
4.81
>>> recorded_result("C=CCSSC=CC[S+]([O-])CCCN1C(=O)c2ccccc2C1=O (mixture of isomers) [Compound Z-5]")
4.46
>>> recorded_result("CCC[S+]([O-])CC=CSSC (mixture of isomers) [Compound E-15, (E/Z)-2,3,7-trithiadeca-4-ene-7-oxide]")
4.99
>>> recorded_result("CCCSSC=CC[S+]([O-])CCC (mixture of isomers) [Compound E-14, (E/Z)-4,5,9-trithiadodeca-6-ene-9-oxide]")
5.03
